target_under_test: Recombinant human FGFR1 (Homo sapiens, UniProt P11362)
Sequence (P11362 22-822): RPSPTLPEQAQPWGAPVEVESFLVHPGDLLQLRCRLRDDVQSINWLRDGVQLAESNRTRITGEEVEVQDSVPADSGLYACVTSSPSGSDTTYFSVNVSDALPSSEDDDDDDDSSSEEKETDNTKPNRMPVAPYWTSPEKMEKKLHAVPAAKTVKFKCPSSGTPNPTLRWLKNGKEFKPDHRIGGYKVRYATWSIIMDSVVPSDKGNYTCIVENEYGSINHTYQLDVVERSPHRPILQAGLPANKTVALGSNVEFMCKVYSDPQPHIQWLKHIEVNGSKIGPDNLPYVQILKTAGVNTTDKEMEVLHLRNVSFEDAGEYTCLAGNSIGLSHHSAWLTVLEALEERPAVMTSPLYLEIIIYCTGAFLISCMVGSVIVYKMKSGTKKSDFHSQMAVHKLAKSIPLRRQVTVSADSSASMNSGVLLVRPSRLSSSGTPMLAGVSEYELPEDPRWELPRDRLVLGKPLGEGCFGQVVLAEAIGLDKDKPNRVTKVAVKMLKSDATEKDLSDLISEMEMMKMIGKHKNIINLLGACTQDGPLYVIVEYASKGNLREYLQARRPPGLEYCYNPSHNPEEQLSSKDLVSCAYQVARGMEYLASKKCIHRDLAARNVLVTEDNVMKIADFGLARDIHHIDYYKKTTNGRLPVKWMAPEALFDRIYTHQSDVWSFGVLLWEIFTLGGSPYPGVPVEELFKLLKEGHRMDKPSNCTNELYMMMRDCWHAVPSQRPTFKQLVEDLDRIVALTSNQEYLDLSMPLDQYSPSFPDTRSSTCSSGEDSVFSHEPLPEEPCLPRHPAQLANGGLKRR
method_description: Transcreener Kinase Assay of FGFR1
Assay type: biochemical
recorded_conditions: read-out: FGFR1 (FP) IC50
experimental_endpoint: IC50 (nM)

Study these solved cases before continuing.
[Q] Write down the reported IC50 (system: Recombinant human FGFR1 (Homo sapiens, UniProt P11362)) of CCN1CCN(c2ccc(Nc3ncc(OCc4cc(C(=O)NC)cc(OC)c4Cl)cn3)cn2)CC1 [Compound 272]
[A] 10

[Q] Write down the reported IC50 (system: Recombinant human FGFR1 (Homo sapiens, UniProt P11362)) of CNC(=O)c1cc(COc2cnc(Nc3ccc(N4C[C@@H](C)N(C)[C@@H](C)C4)cc3)nc2)c(F)c(OC)c1 [Compound 267]
[A] 6

[Q] Write down the reported IC50 (system: Recombinant human FGFR1 (Homo sapiens, UniProt P11362)) of CCCN1CC(c2ccc(Nc3ncc(OCc4cc(C(=O)NC)cc(OC)c4F)cn3)cc2)C1 [Compound 240]
[A] 34

[Q] Write down the reported IC50 (system: Recombinant human FGFR1 (Homo sapiens, UniProt P11362)) of CNC(=O)c1cc(COc2cnc(Nc3cnn(C[C@@H]4COC(C)(C)O4)c3)nc2)c(F)c(OC)c1 [Compound 248]
[A] 16

[Q] Write down the reported IC50 (system: Recombinant human FGFR1 (Homo sapiens, UniProt P11362)) of CCN1CCC(c2ccc(Nc3ncc(OCc4cc(C(=O)NC)cc(OC)c4F)cn3)cc2)CC1 [Compound 252]
[A] 21

A = CNC(=O)c1cc(COc2cnc(Nc3cccc(OC)c3)nc2)c(F)c(OC)c1 [Compound 212]
B = CCN1CCC(c2ccc(Nc3ncc(OCc4cc(C(=O)NC)cc(OC)c4F)cn3)cn2)CC1 [Compound 256]
C = CNC(=O)c1cc(COc2cnc(Nc3ccc(N4CCN(C)CC4)nc3)nc2)c(Cl)c(OC)c1 [Compound 263]
D = CNC(=O)c1cc(COc2cnc(Nc3cnn(C[C@H]4COC(C)(C)O4)c3)nc2)c(F)c(OC)c1 [Compound 249]
[Q] Parameters: sort_field (IC50), sort_dir (desc). # output: labels, in the requested order
[A] B, D, A, C
(B: 100 nM, D: 38 nM, A: 26 nM, C: 5 nM)

a = CNC(=O)c1cc(COc2cnc(Nc3ccc(-n4cnnc4)cc3)nc2)c(F)c(OC)c1 [Compound 223]
b = CNC(=O)c1cc(CCc2cnc(Nc3ccc(N4CCN(C)CC4)c(OC)c3)nc2)c(F)c(OC)c1 [Compound 172]
[Q] Between a and b , which one shows the smaller IC50 number? Record your answer as the label of the chosen record.
[A] b
(b: 7 nM, a: 29 nM)

a = CNC(=O)c1cc(COc2cnc(Nc3ccc(-n4cncn4)cc3)nc2)c(F)c(OC)c1 [Compound 221]
b = CNC(=O)c1cc(COc2cnc(Nc3ccc(N4C[C@@H](C)N(C)[C@@H](C)C4)nc3)nc2)c(F)c(OC)c1 [Compound 268]
[Q] Form field 'greater IC50' accepts a or b ; which applies? Record your answer as the label of the chosen record.
[A] a
